// provenance: patent US9393309B2

Assay: Formation of hydrogel from nucleic acid units without ligase
Format: physicochemical
Conditions: without DNA ligase
ENDPOINT LABEL: gel formation

molecule="Tetrapodna(4-18-18): four ODNs, SEQ ID NOs.: 2, 4, 5 and 6, 4-base cohesive protruding end, contains CpG motif (nucleic acid, unmodified DNA) DNA 1: ACGTTCGACAGCGTCAACGTGAAACGTGAAGCGTCTGCGA DNA 2: ACGTTCGCTGACGTTGCAGACATCACGTTGACGCTGTCGA DNA 3: ACGTTCGCAGACGCTTCACGTTGCAGACAGACGTTGACGA DNA 4: ACGTTCGTCAACGTCTGTCTGCTGTCTGCAACGTCAGCGA" endpoint_label="gel formation" val="gels can be prepared"
molecule="Tetrapodna(8-16-16): four ODNs, SEQ ID NOs.: 22, 23, 24 and 25, 8-base cohesive protruding end (nucleic acid, unmodified DNA) DNA 1: ACGTACGTTAGCACGACATCAGCGTCTGACGCTTCGTCGA DNA 2: ACGTACGTTCGACGAAGCGTCAGATCTCGTCAACGCTGCA DNA 3: ACGTACGTTGCAGCGTTGACGAGACAGACGCTTGACGCTA DNA 4: ACGTACGTTAGCGTCAAGCGTCTGCGCTGATGTCGTGCTA" endpoint_label="gel formation" val="gels can be prepared"
molecule="Tripodna(4-18-18): nucleic acid unit of three ODNs, SEQ ID NOs.: 1, 2 and 3, 4-base palindrome cohesive protruding end, CpG (nucleic acid, unmodified DNA) DNA 1: ACGTTCGTCAACGTCTGTGCTCTCACGTTGACGCTGTCGA DNA 2: ACGTTCGACAGCGTCAACGTGAAACGTGAAGCGTCTGCGA DNA 3: ACGTTCGCAGACGCTTCACGTTGAGCACAGACGTTGACGA" endpoint_label="gel formation" val="gels can be prepared"
